These data points were gathered from a melting point compilation (Tetko et al.).

For each record, write down the corresponding melting point.

Molecule: Cc1ccc(C(=O)C=Cc2ccc(-c3ccc([N+](=O)[O-])cc3)o2)o1
Reported: 178 to 179 °C

Molecule: N#CCc1cccc(CC#N)c1F
Reported: 75 to 77 °C

Molecule: COC(=O)c1c(C)noc1-c1cc(C)on1
Reported: 84 to 86 °C

# ---- query compound ----
# input Entry under review: O=Cc1ccc(-c2ccco2)s1 . Reported melting point?
# output 40 to 41 °C

---

For each record, write down the corresponding melting point.

Compound: c1csc(NC2=NCCN2)n1
Measured endpoint: melting point
Reported: 240 to 242 °C
//
Compound: O=C1CCCN1c1ccc(C(F)(F)F)cc1
Measured endpoint: melting point
Reported: 134 to 136 °C
//
Compound: COc1cc(I)c(OC)cc1Cl
Measured endpoint: melting point
Reported: 115 to 116 °C

For each entry beneath this line, provide reported melting point.
1. C=CCNC(=O)C(O)C(O)C(=O)NCC=C (configuration not stated)
2. CCCCCCCCCCCCCCCCCCCCCCC(=O)O
3. COC(=O)c1sc(C(C)(C)C)cc1N
4. Cc1c(S(=O)(=O)c2ccc(Cl)cc2)csc1C(=O)NN

# output
["182 to 186 °C", "79 to 80 °C", "94 to 95 °C", "165 to 168 °C"]
